experiment: Pharmacokinetics of aconitine alkaloids in rat plasma after oral administration of Fuzi extract (d-SPE-LC-MS/MS); type: in vivo, Sprague–Dawley rats; settings: male, Sprague-Dawley, n = 6, oral (gastric gavage) 10 mg/kg Fuzi extract, one-compartment model
I'd appreciate it if you marked entries YES when half-life is lower than 6 h and NO when it is not.

# Molecule, Qualitative label
records = [
    ("CCN1C[C@]2(COC)[C@H](O)C[C@H](OC)[C@@]34[C@@H]5C[C@@]6(O)[C@H](OC(=O)c7ccccc7)[C@@H]5[C@@](OC(C)=O)([C@@H]([C@H](OC)[C@H]23)[C@@H]14)[C@@H](O)[C@@H]6OC [Aconitine]", "YES"),
    ("CCN1CC2(OC(=O)c3ccccc3NC(C)=O)CCC(OC)C34C1C(CC23)C1(O)CC(OC)C2CC4C1(O)C2OC (centres unmarked) [Lappaconitine]", "YES"),
    ("CCN1CC2(COC)C(O)CC(OC)C34C5CC6(O)C(OC)C(O)C(O)(C5C6OC(=O)c5ccccc5)C(C(OC)C23)C14 (centres unmarked) [Benzoylaconitine]", "NO"),
    ("COC[C@@]12CC[C@H](OC)[C@]34C(C([C@H](OC)[C@H]13)[C@]1(OC(C)=O)[C@H]3[C@@H](OC(=O)c5ccccc5)[C@](O)(C[C@H]34)[C@@H](OC)[C@@H]1O)N(C)C2 [Hypaconitine]", "NO"),
    ("COCC12CN(C)C3C4C(OC)C1C3(C(OC)CC2O)C1CC2(O)C(OC)C(O)C4(OC(C)=O)C1C2OC(=O)c1ccccc1 (centres unmarked) [Mesaconitine]", "YES"),
]
